Origin of measurements: patent US20110118131A1

# system tested: T1, Ep-CAM (UniProt P16422 24-265, limits assumed)
# T1 construct: Antigen of the Biacore analysis of ING-1 variants
# T1 sequence (looked up): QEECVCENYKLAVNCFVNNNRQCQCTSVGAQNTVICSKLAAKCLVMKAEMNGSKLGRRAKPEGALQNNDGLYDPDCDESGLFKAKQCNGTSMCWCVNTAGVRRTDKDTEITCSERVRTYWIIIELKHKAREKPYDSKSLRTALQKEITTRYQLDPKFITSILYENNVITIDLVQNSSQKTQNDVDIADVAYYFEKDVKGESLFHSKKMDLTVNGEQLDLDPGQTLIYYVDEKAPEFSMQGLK
# assay info: Biacore, Fab periplasmic extract
assay endpoint: binding result

ING-1 heavy chain G33K (Fab, V domains shown) VH: QIQLVQSGPELKKPGETVKISCKASGYTFTKYKMNWVKQAPGKGLKWMGWINTYTEEPTYGDDFKGRFAFSLETSASTANLQINNLKSEDTATYFCARFGSAVDYWGQGTSVTVSS VL: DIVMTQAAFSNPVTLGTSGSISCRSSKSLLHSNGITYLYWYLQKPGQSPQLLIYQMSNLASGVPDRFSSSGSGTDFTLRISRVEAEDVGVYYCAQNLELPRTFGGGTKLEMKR :: no binding
ING-1 heavy chain N52K (Fab, V domains shown) VH: QIQLVQSGPELKKPGETVKISCKASGYTFTKYGMNWVKQAPGKGLKWMGWIKTYTEEPTYGDDFKGRFAFSLETSASTANLQINNLKSEDTATYFCARFGSAVDYWGQGTSVTVSS VL: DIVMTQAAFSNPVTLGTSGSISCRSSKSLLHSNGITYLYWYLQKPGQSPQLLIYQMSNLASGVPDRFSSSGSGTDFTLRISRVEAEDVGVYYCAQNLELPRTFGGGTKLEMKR :: no binding
